Target: HIV-1 Env of isolate 98CN006 (subtype CRF08_BC) (HIV-1)
Assay: cell-based or functional assay
Hi! Could you tag entries with IC50 (neutralization) below 0.2 µg/mL as Condition met, and those at or above as Condition not met? Much appreciated.

Prompt line: Could you please tell me whether IC50 (neutralization) recorded for PGT-128 (antibody, V domains shown) VH: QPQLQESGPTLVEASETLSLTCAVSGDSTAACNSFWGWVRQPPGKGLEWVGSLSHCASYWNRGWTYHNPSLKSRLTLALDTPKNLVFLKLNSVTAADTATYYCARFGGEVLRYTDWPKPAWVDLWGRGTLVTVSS VL: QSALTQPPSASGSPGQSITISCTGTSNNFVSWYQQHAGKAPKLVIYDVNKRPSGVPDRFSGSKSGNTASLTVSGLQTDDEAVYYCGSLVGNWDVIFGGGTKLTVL is less than 0.2 µg/mL?
Response line: Condition met

Prompt line: Could you please tell me whether IC50 (neutralization) recorded for PGT-123 (antibody, V domains shown) VH: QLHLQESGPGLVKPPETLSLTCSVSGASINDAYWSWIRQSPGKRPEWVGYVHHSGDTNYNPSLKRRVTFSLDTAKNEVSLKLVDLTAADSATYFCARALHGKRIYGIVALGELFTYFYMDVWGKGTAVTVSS VL: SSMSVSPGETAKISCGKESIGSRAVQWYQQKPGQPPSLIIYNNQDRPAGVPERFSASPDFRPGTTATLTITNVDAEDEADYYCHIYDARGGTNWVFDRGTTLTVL is less than 0.2 µg/mL?
Response line: Condition met

Prompt line: Could you please tell me whether IC50 (neutralization) recorded for PGT-136 (antibody, V domains shown) VH: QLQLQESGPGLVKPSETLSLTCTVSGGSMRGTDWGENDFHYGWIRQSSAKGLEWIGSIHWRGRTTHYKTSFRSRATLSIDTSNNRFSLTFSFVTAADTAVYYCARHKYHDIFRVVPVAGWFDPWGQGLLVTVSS VL: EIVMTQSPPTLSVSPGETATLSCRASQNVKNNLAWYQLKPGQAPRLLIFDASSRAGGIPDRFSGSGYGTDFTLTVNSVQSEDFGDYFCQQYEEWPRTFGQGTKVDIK is less than 0.2 µg/mL?
Response line: Condition not met

Prompt line: Could you please tell me whether IC50 (neutralization) recorded for PGT-135 (antibody, V domains shown) VH: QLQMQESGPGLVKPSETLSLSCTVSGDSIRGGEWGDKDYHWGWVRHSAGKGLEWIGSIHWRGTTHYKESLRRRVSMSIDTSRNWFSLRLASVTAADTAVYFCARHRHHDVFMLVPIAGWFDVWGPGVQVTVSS VL: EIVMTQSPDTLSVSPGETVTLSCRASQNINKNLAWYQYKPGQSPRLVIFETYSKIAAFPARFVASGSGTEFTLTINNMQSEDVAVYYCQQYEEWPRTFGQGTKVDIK is less than 0.2 µg/mL?
Response line: Condition not met

Prompt line: Could you please tell me whether IC50 (neutralization) recorded for PGT-137 (antibody, V domains shown) VH: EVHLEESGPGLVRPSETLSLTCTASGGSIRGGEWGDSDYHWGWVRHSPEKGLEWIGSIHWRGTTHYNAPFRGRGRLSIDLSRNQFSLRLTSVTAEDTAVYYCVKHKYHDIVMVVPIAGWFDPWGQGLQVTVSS VL: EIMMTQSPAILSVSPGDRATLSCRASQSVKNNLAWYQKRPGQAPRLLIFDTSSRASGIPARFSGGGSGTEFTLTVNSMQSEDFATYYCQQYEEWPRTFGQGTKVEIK is less than 0.2 µg/mL?
Response line: Condition not met

Prompt line: Could you please tell me whether IC50 (neutralization) recorded for PGT-126 (antibody, V domains shown) VH: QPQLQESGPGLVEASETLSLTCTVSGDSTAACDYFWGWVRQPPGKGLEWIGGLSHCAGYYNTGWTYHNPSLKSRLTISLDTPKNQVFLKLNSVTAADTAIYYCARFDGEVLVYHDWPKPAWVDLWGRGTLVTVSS VL: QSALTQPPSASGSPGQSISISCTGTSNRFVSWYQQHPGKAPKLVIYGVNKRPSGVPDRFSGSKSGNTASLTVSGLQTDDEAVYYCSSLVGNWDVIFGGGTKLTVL is less than 0.2 µg/mL?
Response line: Condition met

Continuing:
Prompt line: Could you please tell me whether IC50 (neutralization) recorded for PGT-127 (antibody, V domains shown) VH: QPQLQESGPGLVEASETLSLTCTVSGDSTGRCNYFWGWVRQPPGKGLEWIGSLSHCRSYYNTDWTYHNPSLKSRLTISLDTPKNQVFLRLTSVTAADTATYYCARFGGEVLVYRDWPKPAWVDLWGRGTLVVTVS VL: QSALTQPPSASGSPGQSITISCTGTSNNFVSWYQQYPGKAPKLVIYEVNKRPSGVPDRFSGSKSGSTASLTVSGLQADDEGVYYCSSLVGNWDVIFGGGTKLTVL is less than 0.2 µg/mL?
Response line: Condition met

Prompt line: Could you please tell me whether IC50 (neutralization) recorded for PGT-130 (antibody, V domains shown) VH: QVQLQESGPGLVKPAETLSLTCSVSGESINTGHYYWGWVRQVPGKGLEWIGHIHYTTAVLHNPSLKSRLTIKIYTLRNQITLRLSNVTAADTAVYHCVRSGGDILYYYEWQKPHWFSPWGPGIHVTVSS VL: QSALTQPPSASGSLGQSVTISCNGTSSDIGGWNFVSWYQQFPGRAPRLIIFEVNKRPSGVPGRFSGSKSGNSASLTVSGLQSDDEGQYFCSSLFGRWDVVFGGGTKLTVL is less than 0.2 µg/mL?
Response line: Condition not met

Prompt line: Could you please tell me whether IC50 (neutralization) recorded for PGT-131 (antibody, V domains shown) VH: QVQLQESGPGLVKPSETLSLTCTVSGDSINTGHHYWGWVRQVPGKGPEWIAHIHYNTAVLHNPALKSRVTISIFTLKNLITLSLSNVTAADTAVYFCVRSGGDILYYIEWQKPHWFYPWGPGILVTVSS VL: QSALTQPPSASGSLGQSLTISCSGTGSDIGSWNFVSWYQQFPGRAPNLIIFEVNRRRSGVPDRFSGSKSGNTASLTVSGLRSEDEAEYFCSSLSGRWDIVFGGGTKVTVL is less than 0.2 µg/mL?
Response line: Condition not met
